Literature compilation of IC50 measurements on Androgen receptor (Rattus norvegicus).
target.system: Androgen receptor (Rattus norvegicus)
Sequence (P15207 whole entry): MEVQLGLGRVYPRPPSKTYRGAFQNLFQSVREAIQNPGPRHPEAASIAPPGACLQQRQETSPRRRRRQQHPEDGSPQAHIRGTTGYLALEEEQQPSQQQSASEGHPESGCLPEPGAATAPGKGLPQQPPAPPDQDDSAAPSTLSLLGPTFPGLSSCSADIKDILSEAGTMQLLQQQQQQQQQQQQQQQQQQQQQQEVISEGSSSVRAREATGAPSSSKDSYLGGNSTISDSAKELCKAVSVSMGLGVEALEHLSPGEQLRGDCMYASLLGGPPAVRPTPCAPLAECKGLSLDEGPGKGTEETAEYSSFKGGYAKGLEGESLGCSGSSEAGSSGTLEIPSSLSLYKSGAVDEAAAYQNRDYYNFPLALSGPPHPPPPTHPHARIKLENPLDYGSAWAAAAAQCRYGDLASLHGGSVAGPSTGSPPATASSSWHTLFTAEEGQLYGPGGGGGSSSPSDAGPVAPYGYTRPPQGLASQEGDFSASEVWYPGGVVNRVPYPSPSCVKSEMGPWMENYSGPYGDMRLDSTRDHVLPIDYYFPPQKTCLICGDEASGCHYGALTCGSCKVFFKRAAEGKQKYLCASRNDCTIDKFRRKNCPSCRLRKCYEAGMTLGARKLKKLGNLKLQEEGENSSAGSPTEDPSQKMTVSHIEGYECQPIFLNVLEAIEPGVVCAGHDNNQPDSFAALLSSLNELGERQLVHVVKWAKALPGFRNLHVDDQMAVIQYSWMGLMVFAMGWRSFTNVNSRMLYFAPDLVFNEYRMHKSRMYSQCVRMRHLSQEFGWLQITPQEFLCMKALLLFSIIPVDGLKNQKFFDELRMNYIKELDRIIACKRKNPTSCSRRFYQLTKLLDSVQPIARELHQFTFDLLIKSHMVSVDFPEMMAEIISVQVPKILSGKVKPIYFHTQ

Query: GET /values?readout=IC50&system=Androgen receptor (Rattus norvegicus)&item= CC(C)N(C(=O)[C@H]1CC[C@H]2[C@@H]3CCC4NC(=O)CC[C@]4(C)[C@H]3CC[C@]12C)C(C)C (stereo partly drawn)
Result: > 100 µM

Query: # iterate: CCN(CC)C(=O)CCC(C)[C@H]1CC[C@H]2[C@@H]3CCC4N(C)C(=O)CC[C@]4(C)[C@H]3CC[C@]12C (stereo partly drawn)
Result: 0.43 µM

Query: And the next one, CCN(CC)C(=O)C(C)[C@H]1CC[C@H]2[C@@H]3CCC4N(C)C(=O)CC[C@]4(C)[C@H]3CC[C@]12C (stereo partly drawn) ?
Result: 48 µM

Query: Now consider COC(=O)C(C)[C@H]1CC[C@H]2[C@@H]3CCC4NC(=O)C=C[C@]4(C)[C@H]3CC[C@]12C (stereo partly drawn) and answer again.
Result: > 100 µM

Query: Try this molecule next: Clc1ccc(-c2ccc(Cl)cc2Cl)c(Cl)c1
Result: 17 µM

Query: Lookup CCN(CC)C(=O)[C@H]1CC[C@H]2[C@@H]3CC[C@H]4N(C)C(=O)[C@@H]5C[C@@H]5[C@]4(C)[C@H]3CC[C@]12C
Result: 2.7 µM

Query: Queued: CC(C(=O)O)[C@H]1CC[C@H]2[C@@H]3CCC4NC(=O)C=C[C@]4(C)[C@H]3CC[C@]12C (stereo partly drawn)
Result: > 100 µM

Query: Same read-out for Cn1c2c(c3cccc(O)c31)CSc1cc(F)ccc1-2 ?
Result: 3.8 µM

Query: Next: C[C@]12CC[C@H]3[C@@H](CCC4NC(=O)C=C[C@@]43C)[C@@H]1CC[C@@H]2C(=O)c1ccc[nH]1 (stereo partly drawn)
Result: 8 µM

Query: Next entry: Cn1c2c(c3cc(O)ccc31)CSc1cc(Br)ccc1-2
Result: 2.8 µM

Query: Also check CC(C(=O)O)[C@H]1CC[C@H]2[C@@H]3CCC4N(C)C(=O)C=C[C@]4(C)[C@H]3CC[C@]12C (stereo partly drawn)
Result: > 100 µM

Query: And the next one, CC(C)N(C(=O)[C@H]1CC[C@H]2[C@@H]3CC=C4N(C)C(=O)C=C[C@]4(C)[C@H]3CC[C@]12C)C(C)C ?
Result: 6.4 µM

Query: Repeat with C#C[C@@]1(O)C[C@H]2C[C@@H]1[C@@H]1CC(=C3CCC(=O)CC3)C[C@H]21
Result: 57 µM

Query: Check CO[C@H]1CC(=O)NC2CC[C@H]3[C@@H]4CC[C@H](C(N)=O)[C@@]4(C)CC[C@@H]3[C@]21C (stereo partly drawn) too.
Result: > 100 µM

Query: Quick one: O=C(c1ccccc1)c1ccc(O)cc1
Result: 182 µM

Query: Try the molecule O=C1CCC(=C2C[C@@H]3[C@@H]4C[C@H]([C@@H]3C2)[C@@](O)(C(F)(F)F)C4)CC1
Result: 41.2 µM

Query: Again, but for CCN(CC)C(=O)[C@H]1CC[C@H]2[C@@H]3CC=C4N(O)C(=O)CC[C@]4(C)[C@H]3CC[C@]12C
Result: 0.19 µM

Query: How about C[C@]12CC[C@H]3[C@@H](CCC4NC(=O)CC[C@@]43C)[C@@H]1CC[C@@H]2C(N)=O (stereo partly drawn) ?
Result: > 100 µM

Query: Queued: O=c1cc(-c2ccccc2)oc2ccccc12
Result: 77.6 µM

Query: Record: CC(O)[C@H]1CC[C@H]2[C@@H]3CCC4N(C)C(=O)CC[C@]4(C)[C@H]3CC[C@]12C (stereo partly drawn)
Result: 0.074 µM

Query: // repeat for O=C(c1ccc(O)cc1)c1ccc(O)cc1 and report
Result: 145 µM

Query: Now consider CC(C(=O)O)[C@H]1CC[C@H]2[C@@H]3CCC4NC(=O)CC[C@]4(C)[C@H]3CC[C@]12C (stereo partly drawn) .
Result: > 100 µM

Query: Now consider CCC(C)C(=O)[C@H]1CC[C@H]2[C@@H]3CCC4NC(=O)CC[C@]4(C)[C@H]3CC[C@]12C (stereo partly drawn) and answer again.
Result: > 100 µM

Query: Same question for CCN(CC)C(=O)[C@H]1CC[C@H]2[C@@H]3CC[C@H]4N(C)C(=O)[C@H](OC)C[C@]4(C)[C@H]3CC[C@]12C please.
Result: > 10 µM

Query: Ok, now C[C@]12C=CC(=O)NC1CC[C@@H]1[C@@H]2CC[C@@]2(C)[C@H]1CC[C@@]21CCCO1 (stereo partly drawn)
Result: 1.5 µM

Query: One more molecule: C[C@]12C=CC(=O)N[C@@H]1CC[C@@H]1[C@@H]2CC[C@]2(C)[C@@H](C(N)=O)CC[C@@H]12
Result: > 10 µM

Query: # repeat for CCC(C)C(=O)[C@H]1CC[C@H]2[C@@H]3CCC4N(C)C(=O)C=C[C@]4(C)[C@H]3CC[C@]12C (stereo partly drawn)
Result: 0.064 µM

Query: Next up: C[C@H]1CC2N(C)C(=O)CC[C@]2(C)[C@H]2CC[C@@]3(C)[C@@H](CC[C@@]34CCCO4)[C@H]12 (stereo partly drawn)
Result: 0.5 µM
